# Test system: 454973-116-R2-J3-PDC complex spheroid viability
# Procedure details: Anticancer human tumor 454973-116-R2-J3-PDC patient-derived pancreatic carcinoma cell line growth inhibition [POLQ]
# Particulars: second compound 10 µM; first compound 0.1 µM; stronger effect = lower value
Experimental endpoint: viability, T/C (%)
Kindly provide the numeric value in % only, without the unit symbol.

Qu. Hi! What's the reported viability, T/C for CCc1cc2c(N3CCc4c(cc(Cn5ccnc5)cc4-c4cn(C)nc4C(F)(F)F)C3=O)ccnc2c(OC)n1 + Cc1cccc(N(C)C(=O)C2C(O)CCN2c2nc(C)cc(C(F)(F)F)c2C#N)c1 on 454973-116-R2-J3-PDC complex spheroid viability?
Ans. 87.5

Qu. Hi! What's the reported viability, T/C for CCc1cc2c(N3CCc4c(cc(Cn5ccnc5)cc4-c4cn(C)nc4C(F)(F)F)C3=O)ccnc2c(OC)n1 + COC1C(OC(N)=O)C(O)C(Oc2ccc3c(O)c(NC(=O)c4ccc(O)c(CC=C(C)C)c4)c(=O)oc3c2C)OC1(C)C on 454973-116-R2-J3-PDC complex spheroid viability?
Ans. 99

Qu. Hi! What's the reported viability, T/C for CC1COCCN1c1cc(C2(O)CC3CCC(C2)O3)c2cnn(-c3ccn[nH]3)c2n1 (stereo not given) + Cc1cccc(N(C)C(=O)C2C(O)CCN2c2nc(C)cc(C(F)(F)F)c2C#N)c1 on 454973-116-R2-J3-PDC complex spheroid viability?
Ans. 60.5

Qu. Hi! What's the reported viability, T/C for COc1cc2cc(C(=O)CCC(=O)O)sc2cc1OC + COC1C(OC(N)=O)C(O)C(Oc2ccc3c(O)c(NC(=O)c4ccc(O)c(CC=C(C)C)c4)c(=O)oc3c2C)OC1(C)C on 454973-116-R2-J3-PDC complex spheroid viability?
Ans. 102

Qu. Hi! What's the reported viability, T/C for COc1cc2cc(C(=O)CCC(=O)O)sc2cc1OC + Cc1cccc(N(C)C(=O)C2C(O)CCN2c2nc(C)cc(C(F)(F)F)c2C#N)c1 on 454973-116-R2-J3-PDC complex spheroid viability?
Ans. 98.8

====

# key: entry, value: viability, T/C
# Tested on: 454973-116-R2-J3-PDC complex spheroid viability
# Procedure details: Anticancer human tumor 454973-116-R2-J3-PDC cell line growth inhibition [POLQ];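 further: spheroids exposed to drugs for seven days before measurement; percent viability relative to DMSO vehicle control wells taken as 100%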
# Particulars: second compound 0.1 µM; first compound 0.0316 µM; stronger effect = lower value
Kindly provide the numeric value in % only, without the unit symbol.

Compound	Study system	Quantity unit	viability, T/C
Cn1ncnc1[C@H]1c2n[nH]c(=O)c3cc(F)cc(c23)N[C@@H]1c1ccc(F)cc1 + Nc1ccc(C#CCN(C(=O)Cc2ncc(C(F)(F)F)cc2C(F)(F)F)c2ccc(F)cc2)nn1	454973-116-R2-J3-PDC complex spheroid viability	%	97.2
C#Cc1c(F)ccc2cc(O)cc(-c3ncc4c(N5CC6CCC(C5)N6)nc(OCC56CCCN5CC(F)C6)nc4c3F)c12 (stereo unspecified) + Nc1ccc(C#CCN(C(=O)Cc2ncc(C(F)(F)F)cc2C(F)(F)F)c2ccc(F)cc2)nn1	454973-116-R2-J3-PDC complex spheroid viability	%	46.1
O=C(Nc1ccc(O)c(NS(=O)(=O)c2ccc(F)cc2)c1)c1ccc(-c2ccccc2)cc1 + Nc1ccc(C#CCN(C(=O)Cc2ncc(C(F)(F)F)cc2C(F)(F)F)c2ccc(F)cc2)nn1	454973-116-R2-J3-PDC complex spheroid viability	%	101

Qu. Which measured viability, T/C value corresponds to CC(C)n1c(=O)n(C)c2cnc3cc(F)c(-c4ccc(OCCCN5CCCCC5)nc4)cc3c21 + Cc1cccc(N(C)C(=O)C2C(O)CCN2c2nc(C)cc(C(F)(F)F)c2C#N)c1 ?
Ans. 97.3

Qu. Which measured viability, T/C value corresponds to COc1cc(C2c3cc4c(cc3C(OC3OC5COC(C)OC5C(O)C3O)C3COC(=O)C23)OCO4)cc(OC)c1O (stereo unspecified) + Cc1cccc(N(C)C(=O)C2C(O)CCN2c2nc(C)cc(C(F)(F)F)c2C#N)c1 ?
Ans. 102

Qu. Which measured viability, T/C value corresponds to CC1COCCN1c1cc(C2(O)CC3CCC(C2)O3)c2cnn(-c3ccn[nH]3)c2n1 (stereo unspecified) + Nc1ccc(C#CCN(C(=O)Cc2ncc(C(F)(F)F)cc2C(F)(F)F)c2ccc(F)cc2)nn1 ?
Ans. 84.1
